Conditions: in sec-butanol, 293.15 K

>  <STRUCTURE_SMILES>
CC(C)(C)OC(=O)N[C@@H](CC(N)=O)C(=O)O

>  <solubility (mole fraction)>
0.0017

$$$$

---

Details: in acetonitrile, 313.15 K

>  <STRUCTURE_SMILES>
CC(C)(C)OC(=O)N[C@@H](CC(N)=O)C(=O)O

>  <solubility (mole fraction)>
0.000499

$$$$

---

Conditions: in acetone, 293.15 K
ENDPOINT_LABEL: solubility (mole fraction)

>  <STRUCTURE_SMILES>
CC(C)(C)OC(=O)N[C@@H](CC(N)=O)C(=O)O

>  <RESULT>
0.0012

$$$$

---

Conditions: in methanol, 283.15 K

>  <STRUCTURE_SMILES>
CC(C)(C)OC(=O)N[C@@H](CC(N)=O)C(=O)O

>  <solubility (mole fraction)>
0.00641

$$$$

---

Conditions: in sec-butanol, 288.15 K

>  <STRUCTURE_SMILES>
CC(C)(C)OC(=O)N[C@@H](CC(N)=O)C(=O)O

>  <solubility (mole fraction)>
0.00143

$$$$

---

Conditions: in isopropanol, 318.15 K

>  <STRUCTURE_SMILES>
CC(C)(C)OC(=O)N[C@@H](CC(N)=O)C(=O)O

>  <solubility (mole fraction)>
0.00528

$$$$

---

Details: in isopropanol, 303.15 K
ENDPOINT_LABEL: solubility (mole fraction)

>  <STRUCTURE_SMILES>
CC(C)(C)OC(=O)N[C@@H](CC(N)=O)C(=O)O

>  <ENDPOINT_LABEL>
solubility (mole fraction)

>  <READOUT_NUMBER>
0.00317

$$$$

---

Conditions: in isobutanol, 298.15 K
ENDPOINT_LABEL: solubility (mole fraction)

>  <STRUCTURE_SMILES>
CC(C)(C)OC(=O)N[C@@H](CC(N)=O)C(=O)O

>  <READOUT_NUMBER>
0.00106

$$$$

---

Conditions: in water, 323.15 K

>  <STRUCTURE_SMILES>
CC(C)(C)OC(=O)N[C@@H](CC(N)=O)C(=O)O

>  <solubility (mole fraction)>
0.00107

$$$$

---

Settings: in water, 318.15 K
ENDPOINT_LABEL: solubility (mole fraction)

>  <STRUCTURE_SMILES>
CC(C)(C)OC(=O)N[C@@H](CC(N)=O)C(=O)O

>  <READOUT_NUMBER>
0.000834

$$$$

---

Details: in isopropanol, 323.15 K

>  <STRUCTURE_SMILES>
CC(C)(C)OC(=O)N[C@@H](CC(N)=O)C(=O)O

>  <solubility (mole fraction)>
0.00658

$$$$

---

Conditions: in n-propanol, 313.15 K
ENDPOINT_LABEL: solubility (mole fraction)

>  <STRUCTURE_SMILES>
CC(C)(C)OC(=O)N[C@@H](CC(N)=O)C(=O)O

>  <ENDPOINT_LABEL>
solubility (mole fraction)

>  <RESULT>
0.00386

$$$$

---

Conditions: in n-propanol, 303.15 K
ENDPOINT_LABEL: solubility (mole fraction)

>  <STRUCTURE_SMILES>
CC(C)(C)OC(=O)N[C@@H](CC(N)=O)C(=O)O

>  <READOUT_NUMBER>
0.0026

$$$$
